From: PubChem BioAssay AID463229

tested on: INS-1E rat beta cells, no cytokines, CellTiter-Glo ATP, 48 h; assay: cytokine-free beta-cell viability effect – INS-1E rat cells, ATP luminescence, cherry pick, counter-screen for beta-cell apoptosis protection project, dose response (AID 463229)
Calls of active or inactive are those of the source.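 The calls were made as follows: active = compounds raising the signal whose fitted half-maximal concentration is at or below their top tested dose (cut at about 25 µM in these data); inconclusive = flat fit at 30 to 70% activity, or a poor fit; inactive = the rest.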
# valid calls are 1.0 = active, 0.0 = inactive; nothing else

I'd appreciate the recorded outcome for C=C[C@H](CC(C)C)N(Cc1ccccc1)S(=O)(=O)N(Cc1ccccc1)[C@@H](C=C)CC(C)C from this test.
1.0

I'd appreciate the recorded outcome for S=C(NCc1ccc(Cl)cc1)NC12CC3CC(CC(C3)C1)C2 from this test.
1.0

I'd appreciate the recorded outcome for Cn1c(SCC(=O)N/N=C/c2ccc([N+](=O)[O-])s2)nnc1-c1ccc(Cl)cc1 from this test.
1.0

I'd appreciate the recorded outcome for O=C(NCc1cccnc1)c1ccc(NC(=O)c2ccc(Br)cc2)cc1 from this test.
1.0

I'd appreciate the recorded outcome for Cc1c(C(=O)N(Cc2ccccc2)C(C)C)oc2ccc(S(=O)(=O)N3CCOCC3)cc12 from this test.
0.0

I'd appreciate the recorded outcome for CCCCOc1cc(NCc2ccccc2)c2ncn(C(C)C)c2c1 from this test.
1.0

I'd appreciate the recorded outcome for O=C(Nc1ccc(-c2csc(Nc3cccc(C(F)(F)F)c3)n2)cc1)c1cc([N+](=O)[O-])cc(C(F)(F)F)c1 from this test.
1.0

I'd appreciate the recorded outcome for Nc1nc2ccccc2n1/N=C/c1ccc([N+](=O)[O-])s1 from this test.
1.0

I'd appreciate the recorded outcome for COc1ccc(C(=O)/C(=C\c2ccco2)N2C=CC=CC2=C(C#N)C#N)cc1 from this test.
1.0

I'd appreciate the recorded outcome for CCOc1cc(C)c(S(=O)(=O)Nc2ccc3cn[nH]c3c2)cc1C from this test.
1.0

* * *

Answer each item with its documented AC50.
test system: INS-1E rat beta cells, no cytokines, CellTiter-Glo ATP, 48 h; experiment: cytokine-free beta-cell viability effect – INS-1E rat cells, ATP luminescence, cherry pick, counter-screen for beta-cell apoptosis protection project, dose response (AID 463229)

So what's the measured AC50 for this one? CC1=NN(c2nc3ccccc3[nH]2)C(=O)/C1=C/N(C)C
2.9 µM

So what's the measured AC50 for this one? C=C(C(=O)c1ccccc1)C(C)C(=C)C(=O)c1ccccc1
7.84 µM

So what's the measured AC50 for this one? O=C(N/N=C/c1cnc(N2CCCCC2)s1)c1ccc(C(F)(F)F)cc1
6.66 µM

So what's the measured AC50 for this one? COC1=C(Nc2ccccc2)C(=O)c2ccccc2C1=O
17.4 µM

So what's the measured AC50 for this one? CCN(CC)c1ccc(/C=N/NC(=O)c2ccc3nc[nH]c3c2)c(O)c1
2.7 µM

So what's the measured AC50 for this one? CN(C)C(=O)c1ccc(NC(=O)c2cccnc2)cc1
7.27 µM

* * *

tested on: INS-1E rat beta cells, no cytokines, CellTiter-Glo ATP, 48 h; assay: cytokine-free beta-cell viability effect – INS-1E rat cells, ATP luminescence, cherry pick, counter-screen for beta-cell apoptosis protection project, dose response (AID 463229)
Property Label: AC50

So what's the measured AC50 for this one? O=C(Nc1cc(Sc2ccccn2)cc([N+](=O)[O-])c1)c1ccc(Cl)cc1
8.9 µM

So what's the measured AC50 for this one? O=C(NCCOc1cccnc1)c1ccc(OC2CCN(Cc3ccccn3)CC2)cc1
< 0.195 µM

So what's the measured AC50 for this one? CC(=O)c1c(C)[nH]c(C(=O)OCc2cccc(Cl)c2)c1C
25.4 µM

So what's the measured AC50 for this one? O=C(N/N=C/c1cc([N+](=O)[O-])ccc1O)c1cccc2ccccc12
9.87 µM

So what's the measured AC50 for this one? COc1cccc(CNCCc2c[nH]c3ccccc23)c1OCc1ccccc1F
7 µM

So what's the measured AC50 for this one? O=[N+]([O-])c1ccc(/C=N/n2c(CO)nc3ccccc32)s1
10.8 µM

So what's the measured AC50 for this one? Cc1ccccc1OCCCCn1cnc2ccccc21
7.47 µM

So what's the measured AC50 for this one? CC1=C(C)/C(=N\OS(=O)(=O)c2ccc(C)cc2)C=CC1=O
4.47 µM

So what's the measured AC50 for this one? Oc1[nH]c2ccc(Br)cc2c1N=NC(=S)N1CCOCC1
2.39 µM

So what's the measured AC50 for this one? CCCCC(=O)NC(c1ccc(N(CC)CC)cc1)c1ccc2cccnc2c1O (stereo unspecified)
1.37 µM

So what's the measured AC50 for this one? O=C(c1ccc2c(c1)[nH]c(=S)n1c3ccccc3nc21)N1CCN(c2cccc(Cl)c2)CC1
14.5 µM
